Recorded LC retention time values for a group of molecules are listed next.
Experiment: Agilent ZORBAX 300 SB-C18, 150 × 1 mm, 3.5 µm; A: water + 0.01% heptafluorobutyric acid; B: acetonitrile + 0.01% heptafluorobutyric acid; gradient (min/%B) 0/0 100/90
Conditions: stereoisomer not certain
readout.kind: LC retention time (min)

# molecule, observed.measurement
data = [
    ("c1cnc2nc[nH]c2c1", 6.03),
    ("c1cncc(-c2ncc[nH]2)c1", 6.65),
    ("CC(=O)NC1CCC2C3CC=C4CC(OC(C)=O)CCC4(C)C3CCC12C (stereo unspecified)", 16.7),
    ("CNC1C(OC2C(OC3C(O)C(O)C(N=C(N)N)C(O)C3N=C(N)N)OC(C)C2(O)C=O)OC(CO)C(O)C1O (stereo unspecified)", 7.82),
    ("O=C(O)CNC(=O)c1ccccc1", 7.38),
    ("O=C1C=CC(=O)N1c1ccc(N2CCCCC2)cc1", 9.22),
    ("Nc1ccccc1C(=O)N1CCc2ccccc21", 12.4),
    ("Cn1c(C(=O)N2CCN(C(c3ccccc3)c3ccccc3)CC2)cc(=O)n(C)c1=O", 11.7),
    ("CC(C)c1ccc(C=C2Nc3ccccc3C2=O)cc1", 16.9),
    ("CN(C)Cc1c[nH]c2ccccc12", 7.66),
    ("CCCCCCC[n+]1ccc(-c2cc[n+](CCCCCCC)cc2)cc1", 10.5),
]
